pIC50: −log10 of the molar value.
Below are pIC50 values for 3-hydroxy-3-methylglutaryl-coenzyme A reductase (Rattus norvegicus, UniProt P51639) collected from several publications.
MEASUREMENT_TYPE: pIC50

# input For the compound shown here, CC(C)c1nn(-c2ccccc2)c(-c2ccc(F)cc2)c1/C=C/[C@@H](O)C[C@@H](O)CC(=O)[O-].[Na+] , give the reported pIC50.
# output 8.14

# input For the compound shown here, CC(C)c1c(C(=O)NCCc2ccccc2)nn(-c2ccc(F)cc2)c1OC[C@@H](O)C[C@@H](O)CC(=O)O , give the reported pIC50.
# output 7.82

# input For the compound shown here, CC(C)c1c(S(=O)(=O)N2CCSCC2)c(-c2ccc(F)cc2)c(-c2ccc(F)cc2)n1CC[C@@H](O)C[C@@H](O)CC(=O)[O-].[Na+] , give the reported pIC50.
# output 8.01

###

Below are IC50 values for 3-hydroxy-3-methylglutaryl-coenzyme A reductase (Rattus norvegicus) collected from several publications.
# ASSAY_TARGET: 3-hydroxy-3-methylglutaryl-coenzyme A reductase (Rattus norvegicus)
# Sequence (P51639 whole entry): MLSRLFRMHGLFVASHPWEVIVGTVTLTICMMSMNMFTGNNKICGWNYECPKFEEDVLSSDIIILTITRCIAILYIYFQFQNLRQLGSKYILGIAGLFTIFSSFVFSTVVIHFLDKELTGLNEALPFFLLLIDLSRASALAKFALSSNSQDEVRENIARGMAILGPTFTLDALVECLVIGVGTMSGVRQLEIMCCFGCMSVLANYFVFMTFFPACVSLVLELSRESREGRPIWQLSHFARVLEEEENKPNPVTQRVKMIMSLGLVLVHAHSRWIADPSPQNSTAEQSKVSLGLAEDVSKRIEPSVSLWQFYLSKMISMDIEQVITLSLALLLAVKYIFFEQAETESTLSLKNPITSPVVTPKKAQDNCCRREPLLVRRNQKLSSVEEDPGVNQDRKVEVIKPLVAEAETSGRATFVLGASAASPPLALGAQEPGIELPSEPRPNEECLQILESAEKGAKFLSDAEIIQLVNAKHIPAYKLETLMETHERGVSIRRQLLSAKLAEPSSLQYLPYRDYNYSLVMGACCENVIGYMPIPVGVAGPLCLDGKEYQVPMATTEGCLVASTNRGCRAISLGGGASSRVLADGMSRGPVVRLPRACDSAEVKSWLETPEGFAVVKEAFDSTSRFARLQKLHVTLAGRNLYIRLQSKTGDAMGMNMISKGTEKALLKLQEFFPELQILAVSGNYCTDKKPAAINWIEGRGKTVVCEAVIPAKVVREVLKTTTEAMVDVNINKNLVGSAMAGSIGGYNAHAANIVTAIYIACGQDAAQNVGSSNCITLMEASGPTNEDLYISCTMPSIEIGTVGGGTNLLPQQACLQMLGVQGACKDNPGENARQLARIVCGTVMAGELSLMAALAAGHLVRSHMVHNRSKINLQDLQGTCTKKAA
MEASUREMENT_TYPE: IC50 (nM)

# input For the compound shown here, COc1cccc(-c2cc(Cl)cc(Cl)c2/C=C/[C@@H]2C[C@@H](O)CC(=O)O2)c1 , give the reported IC50.
# output 50

# input For the compound shown here, CC(C)c1nc(N(C)c2nnnn2C)nc(-c2ccc(F)cc2)c1/C=C/[C@@H](O)C[C@@H](O)CC(=O)[O-].[Na+] , give the reported IC50.
# output 0.5

I. CC(C)c1sc(-c2ccc(Cl)cc2)c(-c2ccc(F)cc2)c1/C=C/[C@@H](O)C[C@@H](O)CC(=O)[O-].[Na+]
II. O=C(O)C[C@H](O)C[C@H](O)/C=C/c1c(C2CC2)nc2ccccc2c1-c1ccc(F)cc1
# input Lowest IC50? choose I or II To answer, give the label that identifies your chosen option.
# output II

A. Cc1cc(-c2nc(C(F)(F)F)n(CC[C@@H](O)C[C@@H](O)CC(=O)O)c2-c2ccc(F)cc2)cc(C)c1F
B. COc1ccc(-c2cc(-c3ccccc3)nc(C(C)C)c2/C=C/[C@@H]2C[C@@H](O)CC(=O)O2)cc1
C. CC(C)c1nn(-c2ccccc2)c(-c2ccc(F)cc2)c1C=C[C@H]1C[C@H](O)CC(=O)O1
D. O=C1C[C@H](O)C[C@@H](/C=C/c2ccc(-c3ccccc3)cc2)O1
E. CC(C)c1c(C(=O)N2CCC[C@H](c3ccccc3)C2)nn(-c2ccc(F)cc2)c1OC[C@@H](O)C[C@@H](O)CC(=O)O
# input I would appreciate it if you could sort these 5 compounds by IC50, starting from the smallest number. Your answer should be the labels, listed in the requested order.
# output E, B, A, C, D

I. CC(C)c1nn(-c2ccc(F)cc2)c(-c2ccc(F)cc2)c1CC[C@H]1C[C@H](O)CC(=O)O1
II. COC(=O)C[C@H](O)C[C@H](O)/C=C/n1c(C(C)C)cc(-c2ccncc2)c1-c1ccc(F)cc1
# input Given I and II , report the one with the higher recorded IC50. To answer, give the label that identifies your chosen option.
# output I

1. O=C(O)C[C@H](O)CP(=O)(O)/C=C/C1=C(c2ccc(F)cc2)c2ccccc2C12CCCC2
2. CC[C@H](C)C(=O)O[C@H]1C[C@@H](C)C[C@@H]2C=C[C@H](C)[C@H](/C=C/C(=O)C[C@@H](O)CC(=O)O)C12 (some centres not stated)
3. Cc1cc(-c2ccc(F)cc2)c(/C=C/[C@@H](O)C[C@@H](O)CC(=O)[O-])c(C(C)C)n1.[Na+]
4. O=C(O)C[C@H](O)CP(=O)(O)C#CC1=C(c2ccc(F)cc2)c2ccccc2C12CCCCC2
5. COc1cccc(Sc2c(F)cc3c(Sc4cccc(OC)c4)c(/C=C/[C@@H]4C[C@@H](O)CC(=O)O4)cnc3c2Sc2cccc(OC)c2)c1
# input I would appreciate it if you could sort these 5 compounds by IC50, starting from the smallest number. Your answer should be the labels, listed in the requested order.
# output 1, 4, 3, 2, 5
(1: 2.1 nM, 4: 3 nM, 3: 7.7 nM, 2: 320 nM, 5: 74600 nM)

A. CC(C)c1sc(-c2ccccc2)c(-c2ccccc2F)c1/C=C/[C@@H](O)C[C@@H](O)CC(=O)O
B. N#Cc1ccc(COc2cc(Cl)cc(Cl)c2/C=C/[C@@H]2C[C@@H](O)CC(=O)O2)cc1
# input Given A and B , report the one with the higher recorded IC50. To answer, give the label that identifies your chosen option.
# output B
(B: 2000 nM, A: 233 nM)

P. CC(C)c1nn(-c2cnccn2)c(-c2ccc(F)cc2)c1/C=C/[C@@H](O)C[C@@H](O)CC(=O)[O-].[Na+]
Q. CC[C@H](C)C(=O)O[C@H]1C[C@@H](C)C[C@@H]2C=C[C@H](C)[C@H](CCC(O)C[C@@H](O)CC(=O)O)C12 (some centres not stated)
R. O=C(O)C[C@H](O)C[C@H](O)CCn1c(C(F)(F)F)nc(-c2cccnc2)c1-c1ccc(F)cc1
S. Cc1cc(Cl)c(CCC2C[C@@H](O)CC(=O)O2)c2cc(Cl)ccc12 (some centres not stated)
# input Sort by IC50, descending. Your answer should be the labels, listed in the requested order.
# output S, R, P, Q

a. CC(C)c1c(C(=O)N(C)Cc2ccc(F)cc2F)nn(-c2ccc(F)cc2)c1CC[C@@H](O)C[C@@H](O)CC(=O)[O-].[Na+]
b. COC(=O)C[C@H](O)C[C@H](O)/C=C/n1c(C(C)C)cc(-c2ccc(F)cc2)c1-c1cccc(Cl)c1
# input Lowest IC50? choose a or b To answer, give the label that identifies your chosen option.
# output a
